Would you mind telling me the reported Minimum inhibitory concentration, Ec FADDI-EC003 of each entry?
- System: Enterobacter cloacae
Positions of bridges follow the written chain, without caps; N, C: chain ends. Non-standard residues stand in square brackets, D forms with d. Residues, ends and D or L forms follow the SMILES beside them. *: point of attachment. Benzoyl(4-Me) = Cc1ccc(C(=O)*)cc1; X17 = Cc1cc(C(=O)*)cc(C(F)(F)F)c1; Dab = NCC[C@H](N)C(=O)O; Abu = CC[C@H](N)C(=O)O; Dap = NC[C@H](N)C(=O)O; X44 = O=C(c1ccccc1Cl)*
A number alone suffices; assume mg/L.

In: State the recorded Minimum inhibitory concentration, Ec FADDI-EC003 for this entry: CC[C@@H]1NC(=O)[C@@H](CC(C)C)NC(=O)[C@H](CCN)NC(=O)[C@@H](NC(=O)[C@H](CN)NC(=O)[C@@H](NC(=O)[C@H](CCN)NC(=O)c2ccccc2Cl)[C@@H](C)O)CCNC(=O)[C@H]([C@@H](C)O)NC(=O)[C@H](CCN)NC(=O)[C@H](CCN)NC1=O [Compound 72] (X44-[Dab]T[Dap][Dab][Dab][dL][Abu][Dab][Dab]T; lactam 4-C)
Out: 0.25

In: Another molecule to look at: CC[C@@H]1NC(=O)[C@@H](CC(C)C)NC(=O)[C@H](CCN)NC(=O)[C@@H](NC(=O)[C@H](CN)NC(=O)[C@@H](NC(=O)[C@H](CCN)NC(=O)c2ccc(C)cc2)[C@@H](C)O)CCNC(=O)[C@H]([C@@H](C)O)NC(=O)[C@H](CCN)NC(=O)[C@H](CCN)NC1=O [Compound 98] ({Benzoyl(4-Me)}-[Dab]T[Dap][Dab][Dab][dL][Abu][Dab][Dab]T; lactam 4-C)
Out: 0.25

In: Moving on to the next molecule: CC[C@@H]1NC(=O)[C@@H](CC(C)C)NC(=O)[C@H](CCN)NC(=O)[C@@H](NC(=O)[C@H](CN)NC(=O)[C@@H](NC(=O)[C@H](CCN)NC(=O)c2cc(C)cc(C(F)(F)F)c2)[C@@H](C)O)CCNC(=O)[C@H]([C@@H](C)O)NC(=O)[C@H](CCN)NC(=O)[C@H](CCN)NC1=O [Compound 120] (X17-[Dab]T[Dap][Dab][Dab][dL][Abu][Dab][Dab]T; lactam 4-C)
Out: 0.25
